EXPERIMENTAL_SYSTEM: Bcl-2 protein (Recombinant Human Bcl-2 Protein) (Homo sapiens, UniProt P10415)
Construct: purchased Novus NBP2-34889
Sequence (P10415 whole entry): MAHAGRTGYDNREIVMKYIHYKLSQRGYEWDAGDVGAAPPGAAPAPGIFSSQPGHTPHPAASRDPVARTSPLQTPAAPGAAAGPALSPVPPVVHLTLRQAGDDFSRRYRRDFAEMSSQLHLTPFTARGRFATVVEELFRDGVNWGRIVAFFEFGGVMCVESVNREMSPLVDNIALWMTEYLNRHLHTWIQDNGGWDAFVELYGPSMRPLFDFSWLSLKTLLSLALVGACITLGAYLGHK
ASSAY_EXPLANATION: Binding evaluation of mixture library compounds to Bcl-2 using AS-MS (affinity selection mass spectrometry)
CONDITIONS_USED: AS-MS, mixture library, Bcl-2; replicate n = 2; ASMS Ratio(%)=(A−C)/B×100
OBSERVATION_TYPE: ASMS ratio (%) n = 2

Worked cases, answers included:
CCOc1cncc(-c2ccccc2CCC(=O)N2CCN(c3ccc(C(=O)NS(=O)(=O)CC45CC6CC(CC(C6)C4)C5)nn3)CC2)c1 = 1.9%
CCOc1cncc(-c2csc(C(=O)N3CCN(c4ccc(C(=O)NS(C)(=O)=O)cc4)CC3)c2)c1 = 0.0%

Batch request: ASMS ratio (%) n = 2 per item, same order as input.
1. CCOc1cncc(-c2ccc(CN3CCN(c4ccc(C(=O)NS(=O)(=O)c5ccc(NCCSc6ccccc6)c([N+](=O)[O-])c5)cc4)CC3)cc2F)c1
2. CCOc1cccc(-c2csc(CN3CCN(c4ccc(C(=O)NS(=O)(=O)CC56CC7CC(CC(C7)C5)C6)nn4)CC3)c2)c1
3. CCOc1cccc(-c2cc(CN3CCN(c4ccc(C(=O)NS(=O)(=O)CC56CC7CC(CC(C7)C5)C6)cc4)CC3)cc(OCC)c2)c1
4. CCOc1cncc(-c2ccc(C(=O)N3CCN(c4ccc(C(=O)NS(C)(=O)=O)nn4)CC3)cc2C)c1

stdout:
13.9%
0.0%
−7.3%
−0.3%
